Values compiled from the supplement of paper PMC7877785.

Overview of recorded self-splicing fitness (ln) for various sequences
# Experimental details: self-splicing fitness, log relative to wild type (ln ratio); higher = more splicing; Tetrahymena group I intron in knt gene, E. coli kanamycin selection, DiMSum; sequences stand for … in CUCUCU…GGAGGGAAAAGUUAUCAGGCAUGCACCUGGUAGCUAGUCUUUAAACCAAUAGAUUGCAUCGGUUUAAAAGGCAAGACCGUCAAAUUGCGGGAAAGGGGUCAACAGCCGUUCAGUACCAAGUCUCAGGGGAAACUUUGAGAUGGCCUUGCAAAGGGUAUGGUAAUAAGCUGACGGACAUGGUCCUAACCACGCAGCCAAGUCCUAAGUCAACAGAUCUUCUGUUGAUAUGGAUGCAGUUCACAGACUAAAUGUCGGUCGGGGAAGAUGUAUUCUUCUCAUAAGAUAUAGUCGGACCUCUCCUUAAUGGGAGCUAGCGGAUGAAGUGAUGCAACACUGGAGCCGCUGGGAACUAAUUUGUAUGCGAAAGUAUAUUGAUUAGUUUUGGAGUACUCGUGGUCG;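 also: selection with 25 µg/mL kanamycin versus none on LB agar overnight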
# Condition info: 37 °C
Readout kind: self-splicing fitness (ln)

Entry sequence	Readout kind	Val
UUCGAGCAAUAUUACGCCUA	self-splicing fitness (ln)	-1.39
UGCAAGCAAUAUUACGUUGG	self-splicing fitness (ln)	-2.22
UGGUAGCAAUAUUACGGCUA	self-splicing fitness (ln)	-0.75
GGCAAGCAAUAUUACGGACU	self-splicing fitness (ln)	0.777
CCACAGCAAUAUUACGUCGA	self-splicing fitness (ln)	-1.47
ACAGAGCAAUAUUACGGGGG	self-splicing fitness (ln)	-2.31
CGGCAGCAAUAUUACGCCAA	self-splicing fitness (ln)	-0.921
AGUCAGCAAUAUUACGACUC	self-splicing fitness (ln)	-2.21
GAUGAGCAAUAUUACGGACG	self-splicing fitness (ln)	-1.49
UAAAAGCAAUAUUACGCGUA	self-splicing fitness (ln)	-0.0821
GGCCAGCAAUAUUACGAGUA	self-splicing fitness (ln)	-2.05

* * *

# Experimental details: self-splicing fitness, log relative to wild type (ln ratio); higher = more splicing; Tetrahymena group I intron in knt gene, E. coli kanamycin selection, DiMSum; sequences stand for … in CUCUCU…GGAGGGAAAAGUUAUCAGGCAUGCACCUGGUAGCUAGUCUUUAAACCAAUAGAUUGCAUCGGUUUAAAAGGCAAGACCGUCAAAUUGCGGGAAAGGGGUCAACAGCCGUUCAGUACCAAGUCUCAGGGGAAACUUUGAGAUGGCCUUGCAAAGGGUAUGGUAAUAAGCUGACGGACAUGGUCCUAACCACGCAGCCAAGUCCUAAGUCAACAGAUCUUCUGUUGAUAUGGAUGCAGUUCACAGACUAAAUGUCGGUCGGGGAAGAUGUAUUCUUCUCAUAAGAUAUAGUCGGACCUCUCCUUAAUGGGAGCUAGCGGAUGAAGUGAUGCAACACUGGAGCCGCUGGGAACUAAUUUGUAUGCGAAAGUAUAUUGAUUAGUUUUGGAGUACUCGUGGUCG
# Condition info: 37 °C

Entry sequence	self-splicing fitness (ln)
GAACAGCAAUAUUACGAUAG	-0.972
UUCAAGCAAUAUUACGUUAG	-1.32
GACGAGCAAUAUUACGCGAC	-1.04
CCUGAGCAAUAUUACGCUAU	-3.09
AGAGAGCAAUAUUACGACCU	-0.651
GGGUAGCAAUAUUACGGAUG	-2.61
GGUCAGCAAUAUUACGUACG	-0.609
UAACAGCAAUAUUACGUCUG	0.248
CUAUAGCAAUAUUACGUUUA	-1.74
CGCUAGCAAUAUUACGUGGA	-2.33
AAGAAGCAAUAUUACGGUAU	-0.974
CAUGAGCAAUAUUACGCCCG	-0.89
GUUCAGCAAUAUUACGCGGG	-0.613
ACCCAGCAAUAUUACGCUGG	-2.4

* * *

# Experimental details: self-splicing fitness, log relative to wild type (ln ratio); higher = more splicing; Tetrahymena group I intron in knt gene, E. coli kanamycin selection, DiMSum; sequences stand for … in CUCUCU…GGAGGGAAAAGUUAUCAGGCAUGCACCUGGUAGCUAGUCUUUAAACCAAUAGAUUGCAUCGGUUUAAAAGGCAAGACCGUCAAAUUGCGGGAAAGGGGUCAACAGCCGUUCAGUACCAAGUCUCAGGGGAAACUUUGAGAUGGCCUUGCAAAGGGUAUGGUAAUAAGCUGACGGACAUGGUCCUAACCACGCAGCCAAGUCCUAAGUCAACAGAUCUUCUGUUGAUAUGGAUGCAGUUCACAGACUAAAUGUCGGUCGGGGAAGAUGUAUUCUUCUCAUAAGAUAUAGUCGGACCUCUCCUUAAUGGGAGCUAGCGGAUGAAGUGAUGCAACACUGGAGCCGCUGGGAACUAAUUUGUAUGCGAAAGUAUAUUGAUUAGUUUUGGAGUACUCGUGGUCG
# Condition info: 37 °C
# self-splicing fitness (ln) >= -1 gives yes, anything below gives no

Entry sequence	Class
ACUUAGCAAUAUUACGCCUU	yes
GGGGAGCAAUAUUACGAUUA	no
UGGCAGCAAUAUUACGCUCA	yes
GCCAAGCAAUAUUACGGGAG	no
GGCGAGCAAUAUUACGUUAC	no
GCGUAGCAAUAUUACGCGAA	no
AAAUAGCAAUAUUACGGCAA	yes
AGCAAGCAAUAUUACGAGUA	yes
UCGGAGCAAUAUUACGCGGG	no
CACUAGCAAUAUUACGUAAC	no
GUUGAGCAAUAUUACGUUCA	no
AGAAAGCAAUAUUACGAUGG	no
GCGCAGCAAUAUUACGCCCA	yes
GUUGAGCAAUAUUACGGCCA	yes
UAGCAGCAAUAUUACGCUAG	no
AGCUAGCAAUAUUACGAUGU	yes
CUGAAGCAAUAUUACGAGCA	no
UCAUAGCAAUAUUACGACAA	no
CUAAAGCAAUAUUACGCGCA	no
CGCAAGCAAUAUUACGGUAA	no

* * *

# Experimental details: self-splicing fitness, log relative to wild type (ln ratio); higher = more splicing; Tetrahymena group I intron in knt gene, E. coli kanamycin selection, DiMSum; sequences stand for … in CUCUCU…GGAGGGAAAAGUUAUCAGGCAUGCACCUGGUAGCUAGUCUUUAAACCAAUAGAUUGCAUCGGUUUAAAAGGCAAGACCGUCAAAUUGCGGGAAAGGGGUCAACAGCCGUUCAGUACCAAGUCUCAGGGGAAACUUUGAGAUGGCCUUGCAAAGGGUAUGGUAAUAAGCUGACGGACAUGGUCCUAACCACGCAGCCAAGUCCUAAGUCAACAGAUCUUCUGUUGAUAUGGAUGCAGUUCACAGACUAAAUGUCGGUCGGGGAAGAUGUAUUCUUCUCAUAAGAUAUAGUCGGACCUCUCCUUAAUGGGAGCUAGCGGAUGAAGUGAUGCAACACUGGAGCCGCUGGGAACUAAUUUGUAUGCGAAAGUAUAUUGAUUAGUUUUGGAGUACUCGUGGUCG
# Condition info: 30 °C
Readout kind: self-splicing fitness (ln)

Entry sequence	Val
GACAAGCAAUAUUACGGCCU	-0.429
AUUUAGCAAUAUUACGGUCU	-0.911
CCAAAGCAAUAUUACGCAGG	-3.23
AGCCAGCAAUAUUACGAAGU	-4.11
ACCUAGCAAUAUUACGACCA	-1.25
AUCGAGCAAUAUUACGGACA	-1.98
GAGAAGCAAUAUUACGACAC	-0.317
UUCGAGCAAUAUUACGGUUA	-1.19

* * *

# Experimental details: self-splicing fitness, log relative to wild type (ln ratio); higher = more splicing; Tetrahymena group I intron in knt gene, E. coli kanamycin selection, DiMSum; sequences stand for … in CUCUCU…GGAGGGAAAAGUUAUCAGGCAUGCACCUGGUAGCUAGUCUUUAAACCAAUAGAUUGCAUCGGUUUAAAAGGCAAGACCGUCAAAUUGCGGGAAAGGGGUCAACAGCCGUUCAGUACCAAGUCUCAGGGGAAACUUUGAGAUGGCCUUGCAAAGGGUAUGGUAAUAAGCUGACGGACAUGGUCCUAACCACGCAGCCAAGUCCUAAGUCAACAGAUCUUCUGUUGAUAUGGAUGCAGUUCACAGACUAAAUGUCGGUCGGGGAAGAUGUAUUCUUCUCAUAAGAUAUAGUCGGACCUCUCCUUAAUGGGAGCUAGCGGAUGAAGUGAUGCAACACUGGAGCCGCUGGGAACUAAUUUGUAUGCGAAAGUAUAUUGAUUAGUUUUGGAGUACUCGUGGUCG
# Condition info: 37 °C
I'd appreciate it if you could label each record using self-splicing fitness (ln) and these ranges: bottom end: < -2; midrange: ≥ -2 and < -0.7; top end: ≥ -0.7

Entry sequence	Class
CCCUAGCAAUAUUACGGUGA	midrange
CAGUAGCAAUAUUACGACUU	top end
UAUAAGCAAUAUUACGGACA	top end
GUAUAGCAAUAUUACGCAGU	bottom end
AUCUAGCAAUAUUACGCGCC	top end
ACAAAGCAAUAUUACGAAUC	midrange
CCACAGCAAUAUUACGGAAG	midrange
ACGAAGCAAUAUUACGUUAU	midrange
AGUCAGCAAUAUUACGACCG	top end
GCCAAGCAAUAUUACGCCUU	midrange
CGUAAGCAAUAUUACGGGGA	midrange
CCAAAGCAAUAUUACGAAUG	top end
UACGAGCAAUAUUACGAUGG	bottom end
AAAUAGCAAUAUUACGACGG	midrange
AGACAGCAAUAUUACGUCGU	midrange
UCUGAGCAAUAUUACGCGCU	midrange
UCUGAGCAAUAUUACGGUUG	bottom end
GGUAAGCAAUAUUACGUGCC	bottom end
AUUUAGCAAUAUUACGGGAA	midrange
AACUAGCAAUAUUACGGUGA	midrange
CUUCAGCAAUAUUACGUGGU	bottom end
CUUCAGCAAUAUUACGUGCU	bottom end
GAAUAGCAAUAUUACGAAUU	top end
CGGCAGCAAUAUUACGUGAG	top end
CUGCAGCAAUAUUACGUGAA	bottom end
AUAAAGCAAUAUUACGUCUC	top end
CGAAAGCAAUAUUACGCCAG	top end
AUCGAGCAAUAUUACGGACA	midrange
UGUUAGCAAUAUUACGAAAG	bottom end
CACUAGCAAUAUUACGCAGG	midrange
ACGCAGCAAUAUUACGUCCA	midrange
UUUAAGCAAUAUUACGCUAU	midrange
CCGUAGCAAUAUUACGCUCG	top end
GACUAGCAAUAUUACGACAA	top end
GCCGAGCAAUAUUACGGGUC	bottom end
CCCAAGCAAUAUUACGCGGG	bottom end
GGCGAGCAAUAUUACGGUUC	top end
CUCCAGCAAUAUUACGGCGA	midrange
UACUAGCAAUAUUACGGUAU	bottom end
UGAUAGCAAUAUUACGUCAG	midrange
CUACAGCAAUAUUACGUCGA	bottom end
GGUUAGCAAUAUUACGCGUU	top end
GAGAAGCAAUAUUACGACAC	top end
CGAGAGCAAUAUUACGUGAA	bottom end
UUCUAGCAAUAUUACGCGGU	top end
UUAAAGCAAUAUUACGCCAG	midrange
GUUUAGCAAUAUUACGAUAC	top end
CUUUAGCAAUAUUACGGAAC	midrange
CGAUAGCAAUAUUACGUAGG	top end
UAGCAGCAAUAUUACGUGUC	bottom end
AAACAGCAAUAUUACGGCGA	midrange
AUGUAGCAAUAUUACGUCGA	bottom end
GGAAAGCAAUAUUACGGUUA	top end
UGAGAGCAAUAUUACGAACG	midrange
AAGUAGCAAUAUUACGCCUG	top end
UUGCAGCAAUAUUACGAAUC	bottom end
